Where do these numbers come from? They come from the RNAGym collection of RNA variant scans (doi:10.1093/nar/gkz1192).

B1: CPEB3 Ribozyme (parent)
chain: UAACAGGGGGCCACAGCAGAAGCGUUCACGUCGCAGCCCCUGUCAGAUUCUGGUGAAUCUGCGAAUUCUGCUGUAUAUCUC

# Variants of: B1
# assay comment: self-cleavage, relative activity (ratio to wild type); higher = more cleavage; in vitro, sequencing
# label = True if self-cleavage >= 0.3 else False

Q: Answer whether self-cleavage of UAACAGGGGGCCACAGCAGAAGCGUUCACGUCGCAGACCCUGUCAGAAUCUGGUGAAUCUGCGAAUUCUGCUGUAUAUCUC [C37A U48A] is greater than or equal to 0.3.
Result: False

Q: Answer whether self-cleavage of UAACAGGGGGCCACAGCAGAAGCGUUCACGUCGCAGCCCCCGUCAGAUUCUGGUGAAUCUGCGAAUUCUGCCGUAUAUCUC [U41C U72C] is greater than or equal to 0.3.
Result: True

Q: Answer whether self-cleavage of UAACAGGGGGCCACAGCAGAAGCGUUCACGUCGCAGCCCCUGUCAGAUUCUGGUGAAUCUGCGCAUUCGGCUGUAUAUCUC [A64C U69G] is greater than or equal to 0.3.
Result: True

Q: Answer whether self-cleavage of UAACAGGGGGCCACAGCAGAAGCGUCCACGUCGCAGCCCCUGUCAGAUUCUGGUGAAUCUGCGAAUUCUCCUGUAUAUCUC [U26C G70C] is greater than or equal to 0.3.
Result: False

Q: Answer whether self-cleavage of UAACAGGGGGCCACAGCAGAAGCGUUCACGUCGCAGCCCCUGUCAGUUUCUGGUGAAUCUGCGAAUUCUGCUGUACAUCUC [A47U U76C] is greater than or equal to 0.3.
Result: True

Q: Answer whether self-cleavage of UAACAUGGGGCCACAGCAGAAGCGUUCACGUCGCAGCCCCUGUCAGAUUCUGGUGAAUCUGCGAAUUCUGCUAUAUAUCUC [G6U G73A] is greater than or equal to 0.3.
Result: True

Q: Answer whether self-cleavage of UAACAGGGGGCCACAGCAGAAGCGUUCACGUCGCAGCCCCGGUCAGAUUCUGGUGAAUCUGCGAAUUCUGCUGUAAAUCUC [U41G U76A] is greater than or equal to 0.3.
Result: False

Q: Answer whether self-cleavage of UAACAGGGGGCCACAGCAGAAGGGUUCAGGUCGCAGCCCCUGUCAGAUUCUGGUGAAUCUGCGAAUUCUGCUGUAUAUCUC [C23G C29G] is greater than or equal to 0.3.
Result: False

Q: Answer whether self-cleavage of UAACAGGGGGCCACAGCAGAAGCGUUCACGUCGCAGCCCCUGUCAGAUACUGGUGAGUCUGCGAAUUCUGCUGUAUAUCUC [U49A A57G] is greater than or equal to 0.3.
Result: True

Q: Answer whether self-cleavage of UAACAGGGGGCCACAGCAGAAGCGUUCACGUCGCAGCCCCUGUCAGAUUCUGGUGAAUCUGCGAAUUCAGCUGUAUAGCUC [U69A U78G] is greater than or equal to 0.3.
Result: True

Q: Answer whether self-cleavage of UAACAGGGGGCCACAGCAGUAGCGUUCACGUCGCAGCCCGUGUCAGAUUCUGGUGAAUCUGCGAAUUCUGCUGUAUAUCUC [A20U C40G] is greater than or equal to 0.3.
Result: False

Q: Answer whether self-cleavage of UAACAGGGGGCCACAGAAGAAGCGUACACGUCGCAGCCCCUGUCAGAUUCUGGUGAAUCUGCGAAUUCUGCUGUAUAUCUC [C17A U26A] is greater than or equal to 0.3.
Result: True

Q: Answer whether self-cleavage of UAACAGGGGGGCACAGCAGAAGCGUCCACGUCGCAGCCCCUGUCAGAUUCUGGUGAAUCUGCGAAUUCUGCUGUAUAUCUC [C11G U26C] is greater than or equal to 0.3.
Result: False

Q: Answer whether self-cleavage of UAACAGGAGGCCACAGCAAAAGCGUUCACGUCGCAGCCCCUGUCAGAUUCUGGUGAAUCUGCGAAUUCUGCUGUAUAUCUC [G8A G19A] is greater than or equal to 0.3.
Result: False

Q: Answer whether self-cleavage of UAACAGGGGGCCACGGCAGAAGCGUUCACGUCGCAGCCCCUGUCAGAUUCUGGUGAAUCUGCGAAUACUGCUGUAUAUCUC [A15G U67A] is greater than or equal to 0.3.
Result: True

Q: Answer whether self-cleavage of UAACAGGGGGCCACAGCAGAAGCGUUCACGUCGCAGCCCCUGUCAGCUUCUGGUGAAUCUGCGAAUUCUGCUGUAUACCUC [A47C U78C] is greater than or equal to 0.3.
Result: True

Q: Answer whether self-cleavage of UAACAGGGGGCCACAGCAGAAGCGUUCACGUCGCCGCCCCUGUCAGAUUCUGGUGAAUCUGCGAAUUCUGCUGUUUAUCUC [A35C A75U] is greater than or equal to 0.3.
Result: True

Q: Answer whether self-cleavage of UAACAGGGGGCCACAGCAGAAGCGUUCACGUCGCAGCCCCUGUGAGAUUCUGGUGAAUCUGCAAAUUCUGCUGUAUAUCUC [C44G G63A] is greater than or equal to 0.3.
Result: True

Q: Answer whether self-cleavage of UAACAGGGGGCCACAGCAGAAGCGUUCACAUCGCAGCCCCUGUCAGACUCUGGUGAAUCUGCGAAUUCUGCUGUAUAUCUC [G30A U48C] is greater than or equal to 0.3.
Result: False

Q: Answer whether self-cleavage of UAACUGGGGGCCACAGCAGAAGCGUUCACGUCGCAGCCCCUGUCAGAUUCUGGUGAAUCUGCGAAUUCUGCUGUAUAUCCC [A5U U80C] is greater than or equal to 0.3.
Result: True

Q: Answer whether self-cleavage of UAAUAGGGGGCCACAGCAGAAGCGUUCACGUCGCAGCACCUGUCAGAUUCUGGUGAAUCUGCGAAUUCUGCUGUAUAUCUC [C4U C38A] is greater than or equal to 0.3.
Result: True

Q: Answer whether self-cleavage of UAACAGGGGGCCACAGCAGAAGCGUUCACGUCGCAGCCCCUGUCAGAUUCUGGUGAAUCUGCGCAUUCUGCUGUAUAUCCC [A64C U80C] is greater than or equal to 0.3.
Result: True

Q: Answer whether self-cleavage of UAACAGGGGGCCACAGCAGAAGCGUUCCCGUCGCAGCCCCUGCCAGAUUCUGGUGAAUCUGCGAAUUCUGCUGUAUAUCUC [A28C U43C] is greater than or equal to 0.3.
Result: True

Q: Answer whether self-cleavage of UAACAGGGGGCCACAGGAGAAGCGUUCACGUCGCAGCCCCUGUCAGAUUCUGGUGAAUCUGCGAAUUCUGCUGUAUACCUC [C17G U78C] is greater than or equal to 0.3.
Result: True

Q: Answer whether self-cleavage of UAACAGGGGGCCACAGCAGAAGCGUACACGUCGCAGCCCCUGUCAGAUUCUGGUGAAUCUGCGAAUUCUCCUGUAUAUCUC [U26A G70C] is greater than or equal to 0.3.
Result: False

Q: Answer whether self-cleavage of UAACAGGGGGCCACAGCAGAAGCGCUCACGUCGCAGCCCCUGUCAGAUUCUGGUGAAUCUGCGAAUUCUGCUGUAUAUAUC [U25C C79A] is greater than or equal to 0.3.
Result: True

Q: Answer whether self-cleavage of UAACAGGGGGCCACAGCAGAAGCGUUCACGUCGCAGCCCCUGUCAGAUUCUGGUUAAUCUGCGAGUUCUGCUGUAUAUCUC [G55U A65G] is greater than or equal to 0.3.
Result: False

Q: Answer whether self-cleavage of UAAUAGGGGGCCACAGCUGAAGCGUUCACGUCGCAGCCCCUGUCAGAUUCUGGUGAAUCUGCGAAUUCUGCUGUAUAUCUC [C4U A18U] is greater than or equal to 0.3.
Result: True

Q: Answer whether self-cleavage of UAACAGGGGGCUACAGCUGAAGCGUUCACGUCGCAGCCCCUGUCAGAUUCUGGUGAAUCUGCGAAUUCUGCUGUAUAUCUC [C12U A18U] is greater than or equal to 0.3.
Result: True

Q: Answer whether self-cleavage of UAACAGGGGGCCACAGCAGAAGCGUUCACGUCGCAGCCCCUGUCCGAUUCAGGUGAAUCUGCGAAUUCUGCUGUAUAUCUC [A45C U51A] is greater than or equal to 0.3.
Result: True

Q: Answer whether self-cleavage of UAACAGAGGGCCACAGCAGAAGCGUUCACGUCGCAGCCCCUGUCAGACUCUGGUGAAUCUGCGAAUUCUGCUGUAUAUCUC [G7A U48C] is greater than or equal to 0.3.
Result: False
